The measurements presented in this section are drawn from patent US7615567B2.

Please provide measured pKi for the entries that follow.
# System Under Test: α4β2 nAChRs (Rattus norvegicus, UniProt P09483+P12390)
# Sequence (P09483 31-630): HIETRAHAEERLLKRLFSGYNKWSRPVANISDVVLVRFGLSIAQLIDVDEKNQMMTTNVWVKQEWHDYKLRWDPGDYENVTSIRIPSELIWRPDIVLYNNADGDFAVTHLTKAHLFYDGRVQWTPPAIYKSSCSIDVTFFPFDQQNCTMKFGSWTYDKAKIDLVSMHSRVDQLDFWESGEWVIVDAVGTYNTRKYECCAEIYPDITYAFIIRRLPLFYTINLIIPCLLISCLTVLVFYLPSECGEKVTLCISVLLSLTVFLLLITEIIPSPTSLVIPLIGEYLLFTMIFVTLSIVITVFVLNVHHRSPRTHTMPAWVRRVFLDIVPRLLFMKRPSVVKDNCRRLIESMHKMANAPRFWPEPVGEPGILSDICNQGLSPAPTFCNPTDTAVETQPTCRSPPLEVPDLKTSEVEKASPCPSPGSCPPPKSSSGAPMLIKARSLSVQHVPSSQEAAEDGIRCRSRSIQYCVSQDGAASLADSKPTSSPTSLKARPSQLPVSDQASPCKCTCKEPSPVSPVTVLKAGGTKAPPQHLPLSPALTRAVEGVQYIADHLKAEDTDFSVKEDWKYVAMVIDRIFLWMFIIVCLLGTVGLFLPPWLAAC
# Sequence (P12390 25-500): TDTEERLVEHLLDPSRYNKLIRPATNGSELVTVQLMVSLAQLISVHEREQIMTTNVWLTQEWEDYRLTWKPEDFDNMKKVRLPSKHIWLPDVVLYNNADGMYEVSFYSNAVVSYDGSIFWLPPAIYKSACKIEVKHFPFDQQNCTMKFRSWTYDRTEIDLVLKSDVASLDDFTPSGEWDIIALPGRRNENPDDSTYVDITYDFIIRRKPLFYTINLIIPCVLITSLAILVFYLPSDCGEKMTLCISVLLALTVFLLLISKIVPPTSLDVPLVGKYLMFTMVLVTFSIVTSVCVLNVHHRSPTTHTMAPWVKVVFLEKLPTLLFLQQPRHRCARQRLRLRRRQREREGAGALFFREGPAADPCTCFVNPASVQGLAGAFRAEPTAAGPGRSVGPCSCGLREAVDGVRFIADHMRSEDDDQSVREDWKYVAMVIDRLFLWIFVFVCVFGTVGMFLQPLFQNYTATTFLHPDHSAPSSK
# Method Summary: biochemical
# Format: binding
# Condition Description: read-out: α4β2 [^3H]Epibatidine (Ki); Table 1; male rat cerebral cortex homogenate, 0.5-2 nM [3H]epibatidine, Ki from IC50 by Cheng-Prusoff
One number for each entry, as −log10 of the molar value.

molecule="Nc1ncc(C2CC3CCC2N3)cc1I (centres unmarked) [RTI-7527-24]" obs_value=7.45
molecule="Fc1cncc(C2CC3CCC2N3)c1 (centres unmarked) [compound 36]" obs_value=10.43
molecule="Fc1ccc(C2CC3CCC2N3)cn1 (centres unmarked) [compound 13]" obs_value=10.57
molecule="COc1cccc(-c2cncc(C3CC4CCC3N4)c2)c1 (centres unmarked) [compound 46]" obs_value=9.37
molecule="Clc1ncc(C2CC3CCC2N3)cc1Br (centres unmarked) [RTI-7527-53]" obs_value=10.89

For the 3 molecules below, give their pKi values.
1. Clc1ncc(C2CC3CCC2N3)cc1-c1ccccc1 (centres unmarked) [RTI-7527-2]
2. CN(C)c1ccc(C2CC3CCC2N3)cn1 (centres unmarked) [compound 19]
3. Ic1cncc(C2CC3CCC2N3)c1 (centres unmarked) [compound 41]

Reply |
1. 10.68
2. 7.58
3. 10.23

---

Provide the reported Hill Slope of each item.
# System Under Test: α4β2 nAChRs (Rattus norvegicus, UniProt P09483+P12390)
# Method Summary: biochemical
# Type: binding
# Condition Description: Table 1; [3H]epibatidine binding, rat cerebral cortex
Answers are plain numbers.

Reference set, count: 5
compound="Brc1cc(C2CC3CCC2N3)cnc1I (centres unmarked) [RTI-7527-50]" obs_value=0.96
compound="Fc1ccc(C2CC3CCC2N3)cn1 (centres unmarked) [compound 13]" obs_value=0.9
compound="Ic1cncc(C2CC3CCC2N3)c1 (centres unmarked) [compound 41]" obs_value=0.9
compound="NC1C2CCC1C(c1ccc(Cl)nc1)C2 (centres unmarked) [compound 3]" obs_value=1.2
compound="Fc1ncc(C2CC3CCC2N3)cc1Cl (centres unmarked) [compound 37]" obs_value=0.8

Each of the following entries comes with a recorded value; kindly state Hill Slope for each.
1. COc1cccc(-c2cncc(C3CC4CCC3N4)c2)c1 (centres unmarked) [compound 46]
2. Ic1ncc(C2CC3CCC2N3)cc1-c1ccccc1 (centres unmarked) [RTI-7527-3]
3. Clc1ncc(C2CC3CCC2N3)cc1Br (centres unmarked) [RTI-7527-53]
4. Cc1nc(Cl)ccc1C1CC2CCC1N2 (centres unmarked) [compound 5]
5. Clc1ncc(C2CC3CCC2N3)cc1-c1ccccc1 (centres unmarked) [RTI-7527-2]
6. Clc1cncc(C2CC3CCC2N3)c1 (centres unmarked) [compound 35]

Reply |
1. 0.9
2. 0.84
3. 0.95
4. 1.1
5. 0.81
6. 0.9

---

# System Under Test: α4β2 nAChRs (Rattus norvegicus, UniProt P09483+P12390)
# Method Summary: biochemical
# Type: binding
Property Measured: pKi
Answers are plain numbers, as −log10 of the molar value.

Solved cases (3 shown):
molecule="Nc1ccc(C2CC3CCC2C3)cn1 (centres unmarked) [compound 54]" obs_value=5.66
molecule="Clc1ncc(C2CC3CCC2N3)cc1I (centres unmarked) [RTI-7527-4]" obs_value=10.92
molecule="Clc1cc(C2CC3CCC2N3)cnc1Cl (centres unmarked) [RTI-7527-5]" obs_value=10.82

Required: pKi, one value per molecule below.
1. Nc1ncc(C2CC3CCC2N3)cc1-c1cccc([N+](=O)[O-])c1 (centres unmarked) [compound 42]
2. Cc1nc(Cl)ccc1C1CC2CCC1N2 (centres unmarked) [compound 5]
3. NC1C2CCC1C(c1ccc(Cl)nc1)C2 (centres unmarked) [compound 3]
4. Nc1ncc(C2CC3CCC2N3)cc1I (centres unmarked) [RTI-7527-57]

Reply |
10.33
6.59
8.09
8.83

Please give pKi, item by item, for the list that follows.
1. COc1cccc(-c2cc(C3CC4CCC3N4)cnc2Cl)c1 (centres unmarked) [compound 45]
2. Fc1ncc(C2CC3CCC2N3)cc1Cl (centres unmarked) [compound 37]
3. Nc1ncc(C2CC3CCC2N3)cc1-c1ccccc1 (centres unmarked) [RTI-7527-51]
4. Fc1ncc(C2CC3CCC2N3)cc1I (centres unmarked) [compound 39]
5. Oc1ncc(C2CC3CCC2N3)cc1-c1ccccc1 (centres unmarked) [compound 29]
6. Brc1cc(C2CC3CCC2N3)cnc1I (centres unmarked) [RTI-7527-50]

Reply |
1. 10.72
2. 10.70
3. 9.48
4. 10.12
5. 7.28
6. 10.57

For every item in the list below, what is its measured pKi?
1. Clc1cncc(C2CC3CCC2N3)c1 (centres unmarked) [compound 35]
2. Ic1ncc(C2CC3CCC2N3)cc1-c1ccccc1 (centres unmarked) [RTI-7527-3]
3. CN1C2CCC1C(c1ccc(Cl)nc1)C2 (centres unmarked) [compound 11]

Reply |
[9.92, 10.72, 7.64]

For every item in the list below, what is its measured pKi?
1. Fc1cc(C2CC3CCC2N3)cnc1F (centres unmarked) [compound 38]
2. Fc1ncc(C2CC3CCC2N3)cc1-c1ccccc1 (centres unmarked) [compound 47]

Reply |
1. 10.26
2. 9.85
